target: STAT6 (Homo sapiens (Human)); assay: STAT6 degrader assay (HiBiT, HeLa LgBiT clone 4.14); type: cell-based; conditions: HeLa LgBiT clone 4.14, 4-24 h; geometric mean; given for compounds with >80% Emax; read-out: STAT6 degradation DC50
Sequence (P42226 whole entry): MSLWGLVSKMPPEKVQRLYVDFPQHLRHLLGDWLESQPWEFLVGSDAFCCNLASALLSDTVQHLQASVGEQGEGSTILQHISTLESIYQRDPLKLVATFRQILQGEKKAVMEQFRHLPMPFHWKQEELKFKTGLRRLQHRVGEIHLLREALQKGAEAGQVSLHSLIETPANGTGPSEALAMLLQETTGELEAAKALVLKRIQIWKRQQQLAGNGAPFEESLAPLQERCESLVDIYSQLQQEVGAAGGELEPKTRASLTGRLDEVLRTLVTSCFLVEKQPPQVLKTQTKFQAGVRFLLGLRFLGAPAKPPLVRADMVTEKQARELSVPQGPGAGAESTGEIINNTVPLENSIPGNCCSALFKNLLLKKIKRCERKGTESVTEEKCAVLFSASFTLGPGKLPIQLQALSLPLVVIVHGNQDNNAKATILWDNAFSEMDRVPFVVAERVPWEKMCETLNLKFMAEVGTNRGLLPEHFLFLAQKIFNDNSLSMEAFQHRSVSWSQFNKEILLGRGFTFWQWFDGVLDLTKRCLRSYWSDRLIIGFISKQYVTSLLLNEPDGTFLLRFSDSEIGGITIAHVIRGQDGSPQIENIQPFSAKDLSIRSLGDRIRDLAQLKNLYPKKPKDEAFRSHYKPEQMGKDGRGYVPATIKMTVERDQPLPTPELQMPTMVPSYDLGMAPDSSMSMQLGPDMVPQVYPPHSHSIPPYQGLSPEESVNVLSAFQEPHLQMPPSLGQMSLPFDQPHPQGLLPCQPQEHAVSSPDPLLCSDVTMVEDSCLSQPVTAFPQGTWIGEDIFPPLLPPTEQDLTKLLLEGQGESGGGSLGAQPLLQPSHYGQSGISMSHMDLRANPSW
Task for the reader: assign each of the following compounds its reported DC50.
// note: answer is a bare numeric in nM

DC50 value, target or system STAT6 (Homo sapiens (Human)), for C[C@@H](c1cc2c(-c3ccc(N)nc3)ccnc2n1C)N1CCC(c2ccc(C(=O)N3CCC(F)(CN4CCN(Cc5ccc6c(c5)n(C)c(=O)n6C5CCC(=O)NC5=O)CC4)CC3)cc2)CC1 (some centres unmarked) [Example 3e32] : 1.6

DC50 value, target or system STAT6 (Homo sapiens (Human)), for CC(C)[C@H]1CN(Cc2ccc3c(c2)n(C)c(=O)n3C2CCC(=O)NC2=O)CCN1CC1CCN(C(=O)c2ccc(C3CCN([C@@H](C)c4cc5c(-c6ccc(N)nc6)ccnc5n4C)CC3)cc2)CC1 (some centres unmarked) [Example 3e21] : 2.8

DC50 value, target or system STAT6 (Homo sapiens (Human)), for COCc1nc2cc(-c3ccnc4c3cc(CN3CCC(c5ccc(C(=O)N6CCC(CN7CCN(Cc8ccc9c(c8)n(C)c(=O)n9C8CCC(=O)NC8=O)CC7)CC6)cc5)CC3)n4C)ccc2[nH]1 (centres unmarked) [Example 3e3] : 0.8

DC50 value, target or system STAT6 (Homo sapiens (Human)), for C[C@@H](c1cc2c(-c3ccc(N)nc3)ccnc2n1C)N1CCC(c2ccc(C(=O)N3CCC(CN4CCN(Cc5ccc6c(c5)n(C)c(=O)n6C5CCC(=O)NC5=O)CC4C(F)(F)F)CC3)cc2)CC1 (some centres unmarked) [Example 3e31] : 2

DC50 value, target or system STAT6 (Homo sapiens (Human)), for CNc1ccc(-c2ccnc3c2cc([C@H](C)N2CC=C(c4c(C)cc(C(=O)N5CCC(CN6CCN(Cc7ccc8c(c7)C(C)(C)C(=O)N8C7CCC(=O)NC7=O)C[C@@H]6C)CC5)cc4F)CC2)n3C)cn1 (some centres unmarked) [Example 3h18] : 6.3
